- Tested on: human neutrophils
- Assay type: cell-based, human neutrophils from donor blood buffy coats
- reported conditions: read-out: Chemotaxis ED50; n = 3
test readout: pEC50
Quick note: pEC50 values are minus log10 of concentrations in mol/L.

stdin: With human neutrophils as the test system, provide measured pEC50 for this substance: IL-8 (5-72), SEQ ID NO: 9, Leu-Arg-Cys-Gln-Cys...
stdout: 9.32

stdin: With human neutrophils as the test system, provide measured pEC50 for this substance: IL-8 (4-72), SEQ ID NO: 2, Glu-Leu-Arg-Cys-Gln-Cys...
stdout: 9.60

stdin: With human neutrophils as the test system, provide measured pEC50 for this substance: IL-8 (1-72), SEQ ID NO: 1, Ser-Ala-Lys-Glu-Leu-Arg-Cys-Gln-Cys... [reference compound]
stdout: 9.44
